Target: M. tuberculosis InhA (Mycobacterium tuberculosis, UniProt P9WGR1)
Construct: made in house; host or cells: E. coli
Sequence (P9WGR1 whole entry, looked up): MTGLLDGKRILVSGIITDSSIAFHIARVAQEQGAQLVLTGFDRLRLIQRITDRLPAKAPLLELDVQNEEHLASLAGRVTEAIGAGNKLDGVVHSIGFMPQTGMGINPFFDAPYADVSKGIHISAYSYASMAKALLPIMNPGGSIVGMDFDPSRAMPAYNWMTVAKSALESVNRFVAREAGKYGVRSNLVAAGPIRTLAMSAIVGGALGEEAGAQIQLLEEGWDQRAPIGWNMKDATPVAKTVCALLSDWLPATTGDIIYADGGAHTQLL
Assay: InhA enzymatic inhibition assay (NADH oxidation at 340 nm)
Assay type: biochemical
// reported IC50 for each item listed
API: value field is a number in nM; no unit string.

Examples with answers:
{"columns": ["Compound", "Units text", "IC50"],
 "data": [
  ["COc1ccc(CNC(=O)Cn2cc(COc3ccc(C(C)=O)cc3)nn2)cc1 [Compound 14]", "nM", 2],
  ["CC(=O)c1ccc(OCc2cn(CC(=O)Nc3ccccc3F)nn2)cc1 [Compound 9]", "nM", 5]
]}

Which IC50 value belongs to CC(=O)c1ccc(OCc2cn(CC(=O)Nc3ccc([N+](=O)[O-])cc3)nn2)cc1 [Compound 10] ?
8
